Assay: Cytotoxicity against human NCM460 cells assessed as cell viability at 50 uM incubated for 72 hrs by MTT assay
Assay type: cell-based
Conditions: read-out: Activity
Measured quantity: viability at 72 h, 50 µM (%)

[
  {
    "Structure": "COc1cc(CCc2ccccc2Cl)cc(OC)c1O",
    "Measured quantity": "viability at 72 h, 50 µM",
    "Unit abbreviation": "%",
    "Result number": 84.4
  }
]

====

Measured pIC50 of individual entries
System: A549
Experiment: Antiproliferative activity against human A549 cells incubated for 72 hrs by MTT assay
Assay type: functional, cell-based
Details: A549, 72 h
pIC50: −log10 of the molar value.
Measured quantity: pIC50

[
  {
    "Compound": "COc1cc(CCc2ccc(OC)c(OC)c2)ccc1O",
    "System under test": "A549",
    "Measured quantity": "pIC50",
    "Censoring qualifier": "=",
    "Result number": 5.44
  },
  {
    "Compound": "COc1ccc(CCc2ccc(Cl)cc2)cc1OC",
    "System under test": "A549",
    "Measured quantity": "pIC50",
    "Censoring qualifier": "<",
    "Result number": 4.60
  },
  {
    "Compound": "COc1cc(CCc2ccccn2)cc(OC)c1O",
    "System under test": "A549",
    "Measured quantity": "pIC50",
    "Censoring qualifier": "<",
    "Result number": 4.60
  },
  {
    "Compound": "COc1cc(CCc2cc(OC)c(O)c(OC)c2)ccc1O [MOSCATILIN]",
    "System under test": "A549",
    "Measured quantity": "pIC50",
    "Censoring qualifier": "=",
    "Result number": 5.68
  },
  {
    "Compound": "COc1cc(CCc2ccncc2)cc(OC)c1O",
    "System under test": "A549",
    "Measured quantity": "pIC50",
    "Censoring qualifier": "<",
    "Result number": 4.60
  },
  {
    "Compound": "COc1cc(CCc2ccccc2Cl)cc(OC)c1O",
    "System under test": "A549",
    "Measured quantity": "pIC50",
    "Censoring qualifier": "=",
    "Result number": 5.67
  },
  {
    "Compound": "COc1cc(CCc2ccc(F)cc2)cc(OC)c1O",
    "System under test": "A549",
    "Measured quantity": "pIC50",
    "Censoring qualifier": "=",
    "Result number": 5.38
  },
  {
    "Compound": "CC(C)=CCC[C@]1(C)C=Cc2c(O)c3c(c(CC=C(C)C)c2O1)O[C@]12C(=C[C@@H]4C[C@H]1C(C)(C)O[C@@]2(C/C=C(/C)C(=O)O)C4=O)C3=O [GAMBOGIC ACID]",
    "System under test": "A549",
    "Measured quantity": "pIC50",
    "Censoring qualifier": "=",
    "Result number": 5.83
  },
  {
    "Compound": "COc1cc(CCc2ccc(Cl)c(Cl)c2)cc(OC)c1O",
    "System under test": "A549",
    "Measured quantity": "pIC50",
    "Censoring qualifier": "=",
    "Result number": 4.87
  },
  {
    "Compound": "COc1cc(CCc2cccc(F)c2)cc(OC)c1O",
    "System under test": "A549",
    "Measured quantity": "pIC50",
    "Censoring qualifier": "=",
    "Result number": 5.65
  },
  {
    "Compound": "COc1ccc(CCc2ccc(F)cc2)cc1OC",
    "System under test": "A549",
    "Measured quantity": "pIC50",
    "Censoring qualifier": "<",
    "Result number": 4.60
  }
]
